The origin of these recorded values is patent US6500815B1.

target.desc: αvβ3 human receptor (vitronectin receptor) (Homo sapiens, UniProt P05106+P06756)
method.description: Competition binding test: displacement of the vitronectin/vitronectin receptor (αvβ3) bond
measurement.setup: human vitronectin coated at 2 μg/ml, 3 hours incubation at ambient temperature, 4B12-HRP antibody detection, OD 450 nm, read-out: Competition binding test Vn/VnR (αvβ3) IC50
Record form. Attribute: IC50. Fill in for each entry.
One number for each entry, in µM.

# compound, scale.unit, number
rows = [
    ("C[C@]12C[C@H](CCCCCC(=O)O)C3=C4CCC(=NNC(=N)N)C(Cl)=C4CC[C@H]3[C@@H]1CCC2=O", "µM", 1.95),
    ("C[C@]12C[C@H](CCCCCC(=O)O)C3=C4CCC(=NNC5=NCCN5)C(Cl)=C4CC[C@H]3[C@@H]1CCC2=O", "µM", 0.017),
    ("C[C@]12C[C@H](CCCCCC(=O)O)C3=C4CC/C(=N\\NC(=N)N)C=C4CC[C@H]3[C@@H]1CCC2=O", "µM", 0.054),
    ("C[C@]12C[C@H](CCCCC(=O)O)C3=C4CCC(=NNC(=N)N)C=C4CC[C@H]3[C@@H]1CCC2=O (mixture of isomers)", "µM", 0.133),
    ("C[C@]12C[C@H](CCCCCC(=O)O)C3=C4CCC(=NNC5=NCCCN5)C=C4CC[C@H]3[C@@H]1CCC2=O (mixture of isomers) [Example 6a 90/10]", "µM", 0.02),
    ("C[C@]12C[C@H](CCCCCC(=O)O)C3=C4CC/C(=N/NC(=N)N)C=C4CC[C@H]3[C@@H]1CCC2=O", "µM", 0.375),
    ("C[C@]12C[C@H](CCCCCC(=O)O)C3=C4CCC(=NNC5=NCCCN5)C=C4CC[C@H]3[C@@H]1CCC2=O (mixture of isomers) [Example 6b 60/40]", "µM", 0.038),
    ("CC12CC(CCCCC(NC(=O)OCc3ccccc3)C(=O)O)C3=C4CCC(=NNC5=NCCN5)C=C4CCC3C1CCC2O (stereo not shown)", "µM", 0.07),
    ("C[C@]12C[C@H](CCCCCC(=O)O)C3=C4CCC(=NNC5=NCCN5)C=C4CC[C@H]3[C@@H]1CCC2=O (mixture of isomers)", "µM", 0.025),
]

Asked: Look at this compound and give its reported IC50. C[C@]12C[C@H](CCCCC(NC(=O)OCc3ccccc3)C(=O)O)C3=C4CCC(=NNC5=NCCN5)C=C4CC[C@H]3[C@@H]1CCC2=O (mixture of isomers)
Given back: 0.03
